- Test system: Escherichia coli IAI1
- method: OD600 after 10 h growth (baseline-subtracted); higher = more bacterial growth (less inhibition)
- applied conditions: 0.2 µg/mL
recorded endpoint: OD600 after 10 h growth

CC(=O)N[C@H](Cc1ccc2ccccc2c1)C(=O)N[C@H](Cc1ccc(Cl)cc1)C(=O)N[C@H](Cc1cccnc1)C(=O)N[C@@H](CO)C(=O)N[C@@H](Cc1ccc(O)cc1)C(=O)N[C@H](CCCNC(N)=O)C(=O)N[C@@H](CC(C)C)C(=O)N[C@@H](CCCNC(=N)N)C(=O)N1CCC[C@H]1C(=O)N[C@H](C)C(N)=O = 0.872
COc1cc2c(cc1Cc1cccc(Cl)c1F)c(=O)c(C(=O)O)cn2[C@H](CO)C(C)C = 0.846
CC(C)(C)c1ccc(C(=O)CCCN2CCC(OC(c3ccccc3)c3ccccc3)CC2)cc1 = 0.796
CC1=C(C)C(=O)C(CCCCCCCCCC[P+](c2ccccc2)(c2ccccc2)c2ccccc2)=CC1=O = 0.808
Cc1c(Cl)c(C)[n+]([O-])c(Cl)c1-c1noc(-c2cc(O)c(O)c([N+](=O)[O-])c2)n1 = 0.855
Cc1cn([C@H]2C[C@H](O)[C@@H](CO)O2)c(=O)[nH]c1=O = 0.952

---

- Test system: Escherichia coli CFT073 (UPEC)
- method: OD600 after 10 h growth (baseline-subtracted); higher = more bacterial growth (less inhibition)
- applied conditions: 4 µg/mL
recorded endpoint: OD600 after 10 h growth

CC(=O)N[C@H](Cc1ccc2ccccc2c1)C(=O)N[C@H](Cc1ccc(Cl)cc1)C(=O)N[C@H](Cc1cccnc1)C(=O)N[C@@H](CO)C(=O)N[C@@H](Cc1ccc(O)cc1)C(=O)N[C@H](CCCNC(N)=O)C(=O)N[C@@H](CC(C)C)C(=O)N[C@@H](CCCNC(=N)N)C(=O)N1CCC[C@H]1C(=O)N[C@H](C)C(N)=O [Cetrorelix] = 0.83
CC(C)(C)c1ccc(C(=O)CCCN2CCC(OC(c3ccccc3)c3ccccc3)CC2)cc1 [Ebastine] = 0.797
CC1=C(C)C(=O)C(CCCCCCCCCC[P+](c2ccccc2)(c2ccccc2)c2ccccc2)=CC1=O [Visomitin] = 0.809
Cc1c(Cl)c(C)[n+]([O-])c(Cl)c1-c1noc(-c2cc(O)c(O)c([N+](=O)[O-])c2)n1 [Opicapone] = 0.872
Cc1cn([C@H]2C[C@H](O)[C@@H](CO)O2)c(=O)[nH]c1=O [Thymidine] = 0.89
COc1cc2c(cc1Cc1cccc(Cl)c1F)c(=O)c(C(=O)O)cn2[C@H](CO)C(C)C [Elvitegravir] = 0.804

---

- Test system: Pseudomonas aeruginosa PA14
- method: OD600 after 10 h growth (baseline-subtracted); higher = more bacterial growth (less inhibition)
- applied conditions: 2 µg/mL
recorded endpoint: OD600 after 10 h growth

COc1cc2c(cc1Cc1cccc(Cl)c1F)c(=O)c(C(=O)O)cn2[C@H](CO)C(C)C = 0.761
Cc1c(Cl)c(C)[n+]([O-])c(Cl)c1-c1noc(-c2cc(O)c(O)c([N+](=O)[O-])c2)n1 = 0.747
CC(=O)N[C@H](Cc1ccc2ccccc2c1)C(=O)N[C@H](Cc1ccc(Cl)cc1)C(=O)N[C@H](Cc1cccnc1)C(=O)N[C@@H](CO)C(=O)N[C@@H](Cc1ccc(O)cc1)C(=O)N[C@H](CCCNC(N)=O)C(=O)N[C@@H](CC(C)C)C(=O)N[C@@H](CCCNC(=N)N)C(=O)N1CCC[C@H]1C(=O)N[C@H](C)C(N)=O = 0.726
Cc1cn([C@H]2C[C@H](O)[C@@H](CO)O2)c(=O)[nH]c1=O = 0.758
CC(C)(C)c1ccc(C(=O)CCCN2CCC(OC(c3ccccc3)c3ccccc3)CC2)cc1 = 0.842
CC1=C(C)C(=O)C(CCCCCCCCCC[P+](c2ccccc2)(c2ccccc2)c2ccccc2)=CC1=O = 0.856

---

Documented OD600 after 10 h growth across a set of molecules
- System: Klebsiella pneumoniae MKP103
- method: OD600 after 10 h growth (baseline-subtracted); higher = more bacterial growth (less inhibition)
- applied conditions: 0.2 µg/mL
recorded endpoint: OD600 after 10 h growth

COc1cc2c(cc1Cc1cccc(Cl)c1F)c(=O)c(C(=O)O)cn2[C@H](CO)C(C)C [Elvitegravir] = 0.666
CC(C)(C)c1ccc(C(=O)CCCN2CCC(OC(c3ccccc3)c3ccccc3)CC2)cc1 [Ebastine] = 0.666
Cc1cn([C@H]2C[C@H](O)[C@@H](CO)O2)c(=O)[nH]c1=O [Thymidine] = 0.669
Cc1c(Cl)c(C)[n+]([O-])c(Cl)c1-c1noc(-c2cc(O)c(O)c([N+](=O)[O-])c2)n1 [Opicapone] = 0.668
CC(=O)N[C@H](Cc1ccc2ccccc2c1)C(=O)N[C@H](Cc1ccc(Cl)cc1)C(=O)N[C@H](Cc1cccnc1)C(=O)N[C@@H](CO)C(=O)N[C@@H](Cc1ccc(O)cc1)C(=O)N[C@H](CCCNC(N)=O)C(=O)N[C@@H](CC(C)C)C(=O)N[C@@H](CCCNC(=N)N)C(=O)N1CCC[C@H]1C(=O)N[C@H](C)C(N)=O [Cetrorelix] = 0.679
CC1=C(C)C(=O)C(CCCCCCCCCC[P+](c2ccccc2)(c2ccccc2)c2ccccc2)=CC1=O [Visomitin] = 0.672

---

- Test system: Staphylococcus aureus Newman
- method: OD600 after 10 h growth (baseline-subtracted); higher = more bacterial growth (less inhibition)
- applied conditions: 8 µg/mL
Tag: Yes if measured OD600 after 10 h growth is not below 1, No if it is.

CC1=C(C)C(=O)C(CCCCCCCCCC[P+](c2ccccc2)(c2ccccc2)c2ccccc2)=CC1=O = No
Cc1c(Cl)c(C)[n+]([O-])c(Cl)c1-c1noc(-c2cc(O)c(O)c([N+](=O)[O-])c2)n1 = Yes
COc1cc2c(cc1Cc1cccc(Cl)c1F)c(=O)c(C(=O)O)cn2[C@H](CO)C(C)C = No
CC(C)(C)c1ccc(C(=O)CCCN2CCC(OC(c3ccccc3)c3ccccc3)CC2)cc1 = Yes
Cc1cn([C@H]2C[C@H](O)[C@@H](CO)O2)c(=O)[nH]c1=O = Yes
CC(=O)N[C@H](Cc1ccc2ccccc2c1)C(=O)N[C@H](Cc1ccc(Cl)cc1)C(=O)N[C@H](Cc1cccnc1)C(=O)N[C@@H](CO)C(=O)N[C@@H](Cc1ccc(O)cc1)C(=O)N[C@H](CCCNC(N)=O)C(=O)N[C@@H](CC(C)C)C(=O)N[C@@H](CCCNC(=N)N)C(=O)N1CCC[C@H]1C(=O)N[C@H](C)C(N)=O = Yes

---

- Test system: Staphylococcus aureus Newman
- method: OD600 after 10 h growth (baseline-subtracted); higher = more bacterial growth (less inhibition)
- applied conditions: 2 µg/mL
recorded endpoint: OD600 after 10 h growth

CC1=C(C)C(=O)C(CCCCCCCCCC[P+](c2ccccc2)(c2ccccc2)c2ccccc2)=CC1=O = 0.0277
Cc1cn([C@H]2C[C@H](O)[C@@H](CO)O2)c(=O)[nH]c1=O = 1.16
CC(C)(C)c1ccc(C(=O)CCCN2CCC(OC(c3ccccc3)c3ccccc3)CC2)cc1 = 1.1
Cc1c(Cl)c(C)[n+]([O-])c(Cl)c1-c1noc(-c2cc(O)c(O)c([N+](=O)[O-])c2)n1 = 1.09
COc1cc2c(cc1Cc1cccc(Cl)c1F)c(=O)c(C(=O)O)cn2[C@H](CO)C(C)C = 1.08
CC(=O)N[C@H](Cc1ccc2ccccc2c1)C(=O)N[C@H](Cc1ccc(Cl)cc1)C(=O)N[C@H](Cc1cccnc1)C(=O)N[C@@H](CO)C(=O)N[C@@H](Cc1ccc(O)cc1)C(=O)N[C@H](CCCNC(N)=O)C(=O)N[C@@H](CC(C)C)C(=O)N[C@@H](CCCNC(=N)N)C(=O)N1CCC[C@H]1C(=O)N[C@H](C)C(N)=O = 1.1

---

- Test system: Pseudomonas aeruginosa PA14
- method: OD600 after 10 h growth (baseline-subtracted); higher = more bacterial growth (less inhibition)
- applied conditions: 32 µg/mL
Documented OD600 after 10 h growth across a set of compounds
recorded endpoint: OD600 after 10 h growth

COc1cc2c(cc1Cc1cccc(Cl)c1F)c(=O)c(C(=O)O)cn2[C@H](CO)C(C)C [Elvitegravir] = 0.689
CC(=O)N[C@H](Cc1ccc2ccccc2c1)C(=O)N[C@H](Cc1ccc(Cl)cc1)C(=O)N[C@H](Cc1cccnc1)C(=O)N[C@@H](CO)C(=O)N[C@@H](Cc1ccc(O)cc1)C(=O)N[C@H](CCCNC(N)=O)C(=O)N[C@@H](CC(C)C)C(=O)N[C@@H](CCCNC(=N)N)C(=O)N1CCC[C@H]1C(=O)N[C@H](C)C(N)=O [Cetrorelix] = 0.763

---

- Tested on: Pseudomonas aeruginosa PA14
- method: OD600 after 10 h growth (baseline-subtracted); higher = more bacterial growth (less inhibition)
- applied conditions: 64 µg/mL
recorded endpoint: OD600 after 10 h growth

Cc1c(Cl)c(C)[n+]([O-])c(Cl)c1-c1noc(-c2cc(O)c(O)c([N+](=O)[O-])c2)n1 = 0.658
CC(C)(C)c1ccc(C(=O)CCCN2CCC(OC(c3ccccc3)c3ccccc3)CC2)cc1 = 0.603
CC1=C(C)C(=O)C(CCCCCCCCCC[P+](c2ccccc2)(c2ccccc2)c2ccccc2)=CC1=O = 0.0773
COc1cc2c(cc1Cc1cccc(Cl)c1F)c(=O)c(C(=O)O)cn2[C@H](CO)C(C)C = 0.661
CC(=O)N[C@H](Cc1ccc2ccccc2c1)C(=O)N[C@H](Cc1ccc(Cl)cc1)C(=O)N[C@H](Cc1cccnc1)C(=O)N[C@@H](CO)C(=O)N[C@@H](Cc1ccc(O)cc1)C(=O)N[C@H](CCCNC(N)=O)C(=O)N[C@@H](CC(C)C)C(=O)N[C@@H](CCCNC(=N)N)C(=O)N1CCC[C@H]1C(=O)N[C@H](C)C(N)=O = 0.749
Cc1cn([C@H]2C[C@H](O)[C@@H](CO)O2)c(=O)[nH]c1=O = 0.718

Reference for the values: the supplement of paper PMC11986102
